Values from patent US5185377A

# pIC50 per entry
Molecular target: 15-lipoxygenase (Oryctolagus cuniculus, UniProt P12530)
Construct: The lipoxygenase from rabbit reticulocytes is obtained in an electrophoretically and immunologically pure form; from tissue; host or cells: rabbit reticulocytes
Sequence (P12530 whole entry): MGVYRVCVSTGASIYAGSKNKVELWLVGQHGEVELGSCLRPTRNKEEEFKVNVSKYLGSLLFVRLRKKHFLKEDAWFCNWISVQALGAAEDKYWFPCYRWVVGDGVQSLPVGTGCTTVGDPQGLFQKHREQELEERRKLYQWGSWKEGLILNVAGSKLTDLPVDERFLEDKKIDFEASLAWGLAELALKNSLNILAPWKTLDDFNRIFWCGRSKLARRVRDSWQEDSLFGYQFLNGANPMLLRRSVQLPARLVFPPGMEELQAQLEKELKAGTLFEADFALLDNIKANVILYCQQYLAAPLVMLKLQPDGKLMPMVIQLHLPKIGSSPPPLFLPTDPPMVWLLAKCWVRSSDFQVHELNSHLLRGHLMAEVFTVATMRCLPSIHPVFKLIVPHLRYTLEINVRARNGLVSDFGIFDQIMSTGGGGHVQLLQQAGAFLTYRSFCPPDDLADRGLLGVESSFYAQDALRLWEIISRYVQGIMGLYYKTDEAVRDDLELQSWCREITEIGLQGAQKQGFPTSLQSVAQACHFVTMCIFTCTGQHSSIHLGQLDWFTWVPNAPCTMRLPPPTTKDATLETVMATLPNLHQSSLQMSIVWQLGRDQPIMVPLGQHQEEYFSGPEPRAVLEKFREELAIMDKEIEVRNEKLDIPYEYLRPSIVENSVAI
Test: Inhibition of the activity of 15-lipoxygenase from rabbit reticulocytes
Type: biochemical
From the text: […]
The quantity pIC50 is defined as the negative base-10 logarithm of the molar concentration.

Study these solved cases before continuing.
given.smiles: Cc1cc(Cl)cc(Cc2ccccc2)c1O
reported.metric: pIC50
experimental.result: 5.60

given.smiles: Oc1c(Br)cc(Br)cc1Cc1cc(Br)cc(Br)c1O
reported.metric: pIC50
experimental.result: 5.55

given.smiles: Oc1ccc(Cl)cc1Cc1ccccc1
reported.metric: pIC50
experimental.result: 5.70

given.smiles: Oc1ccc(Cl)cc1Sc1cc(Cl)ccc1O
reported.metric: pIC50
experimental.result: 5.85

Now take the following compound into account.
# input Request the reported pIC50 associated with Oc1cc(Cl)ccc1Oc1ccc(Cl)cc1Cl
# output 5.62
